# assay_overview: yeast display, Sf9 membrane polyspecificity reagent, FACS + sequencing; frameworks hold sequencing errors
test_readout: polyreactivity (PSR sort gate)

input_sequence	test_readout	observed_result
HVQLVESGGGLVQAGGSLRLSCAASGIIFRYKALGWYREAPGKERELVAAISVSGGSTYYADSVKGRFTISRDNAKNTVDLQMNSLKPEDTAVDYCAALLYRYGVHQAEHDYWGQGTQVTVSS	polyreactivity (PSR sort gate)	high polyreactivity
QFQLVESGGGLVQAGGSLRLSCAASGRTFVINAMGWYRQAPGKERELVAAISRGGSRTFYADSVKGLFTISRDTAKNTVYLQMNSLKPVDTAVYYCNAVAQSGRYDYWGQGTQVTVSS	polyreactivity (PSR sort gate)	high polyreactivity
QVQLVESGGGLVQAGGSLRLSCAASGYTFGQYAMGWYRQAPGKEREFVAAINRSGGSTYYADSVKGRFTISRDNAKNTVYLQMNSLKPEDTAVYYCNAGYRRSSHFREHDYWGQGTQVTVSS	polyreactivity (PSR sort gate)	high polyreactivity

Ref: the nanobody polyreactivity screen of Harvey et al. (2022)
